Tested on: Plasmodium berghei
protocol_notes: Screen against P. berghei liver stage (PbLuc), transformed with Luciferase, at 10uM
Format: functional, HepG2
recorded_conditions: tested at 10 uM
Hit rate of the full screen: of about 69,000 compounds, about 8,600 (12%) showed an effect of 50% or more. This excerpt belongs to a sample that is enriched for strong results.
Entries and their measured INHIBITION follow.
quantity_measured: INHIBITION

>>> value("CCOC(=O)CNc1nc(C(C)(C)C)nc2c1cnn2C")
"51.3%"
>>> value("CC(C)CN1CCC2(CC1)CC(NS(C)(=O)=O)c1ccccc1O2 (stereo unspecified)")
"6.55%"
>>> value("Cn1ncc2c(NC3CCCN(C(=O)C4CC4)C3)nc(C(C)(C)C)nc21 (stereo unspecified)")
"62.9%"
>>> value("O=C(CCc1ccc(Cl)s1)N1CCCC(N2CCNC2=O)C1 (stereo unspecified)")
"30%"
>>> value("O=C(NC1CC1)C1CN(c2nc3ccccc3s2)CCN1 (stereo unspecified)")
"65.6%"
>>> value("Cn1ncc2c(NCC3CCS(=O)(=O)C3)nc(C3CCCC3)nc21 (stereo unspecified)")
"15.1%"
>>> value("CCN(CC)CC(=O)NCCc1csc(N2CCCC2)n1")
"9.48%"
>>> value("Cc1ccc(C(=O)NCC(O)c2cccc(F)c2)c(=O)[nH]1 (stereo unspecified)")
"52.5%"
>>> value("COc1ccc(CN2CC3(CCNCC3)CCC2=O)c(F)c1F")
"22.9%"
>>> value("CCCC(=O)N1CCCN(C(=O)c2oc(C)nc2C)CC1")
"80%"
>>> value("CCOC(=O)CC(C)Nc1nc(C(C)(C)C)nc2c1cnn2C (stereo unspecified)")
"46.4%"
>>> value("Cc1oc(C(C)C)cc1C(=O)N1C[C@@H]2CC[C@H]1CN(C(=O)N(C)C)C2")
"-14.3%"
>>> value("CCS(=O)(=O)N1C[C@H]2CC[C@](O)(c3ccc(C)cc3)[C@H]2C1")
"-2.11%"
>>> value("O=C(NCC(O)c1cccc(F)c1)c1cccnc1O (stereo unspecified)")
"50.1%"
>>> value("O=C(CC1CC1)N1CC[C@H]2OCC[C@@]2(COc2ncccc2F)C1")
"-31.3%"
>>> value("c1ccc(O[C@H]2COCCN(Cc3c[nH]c4ccccc34)C2)cc1")
"-41.9%"
>>> value("CC1=NOC2(CCN(Cc3c[nH]c4ccccc34)CC2)C1")
"43.3%"
>>> value("COCCN1CCCN(C(=O)c2oc(C)nc2C)CC1")
"33.4%"
>>> value("O=C(c1cc(C2CC2)on1)N1C[C@H]2CC[C@](O)(c3ccc(F)cc3)[C@H]2C1")
"1.75%"
>>> value("COc1ccccc1N1CC(NC(=O)c2cc(C(C)C)nn2C)CC1=O (stereo unspecified)")
"69.4%"
>>> value("Cc1nc(C)c(C(=O)N2CCc3nnc(C4CCCCN4C)n3CC2)o1 (stereo unspecified)")
"-4.68%"
>>> value("CC(=O)NCc1ccc(C(=O)NC2CCc3nc(C)cn3C2)o1 (stereo unspecified)")
"17.945%"
>>> value("Cc1n[nH]c(C2CN(CC(=O)NCCc3ccccc3C)CCO2)n1 (stereo unspecified)")
"43.1%"
>>> value("Cc1ccc(C(=O)NCC(O)c2ccc(F)c(F)c2)c(=O)[nH]1 (stereo unspecified)")
"26.6%"
>>> value("Cn1ncc2c(N[C@H]3CCCC[C@@H]3O)nc(C(C)(C)C)nc21")
"50.1%"
>>> value("COc1cccc(NC(=O)Cn2c(=O)nc(N)c3cc(C)sc32)c1")
"-12.5%"
>>> value("CC(C)OCCC(=O)NCCc1csc(N2CCCC2)n1")
"48.3%"
>>> value("COC(=O)c1ccc(C(=O)NCC(O)c2cccn2C)cc1 (stereo unspecified)")
"-52.5%"
>>> value("CC(C)(C)OC(=O)NCCc1csc(N2CCCC2)n1")
"65.4%"
>>> value("O=C(CCc1cccs1)N1CCCC(N2CCNC2=O)C1 (stereo unspecified)")
"11.6%"
>>> value("Cc1cc(C)c(CNC(=O)NCC(O)c2cccc(F)c2)c(=O)[nH]1 (stereo unspecified)")
"27.9%"
>>> value("Cc1cccc(C(=O)N2CCC3(CC(C(=O)N(C)C(C)C)=NO3)C2)c1 (stereo unspecified)")
"6.72%"
>>> value("Cc1nc(C)c(C(=O)N2CCN(CCOc3ccccc3C)CC2)o1")
"66.3%"
>>> value("CCc1nc(NC2CCCN(C(=O)C3CC3)C2)c2cnn(C)c2n1 (stereo unspecified)")
"16%"
>>> value("Cc1nc(N[C@H]2COC[C@@H]2N2CCCC2)c2cnn(C)c2n1")
"32.7%"
>>> value("CCc1c(C(=O)N2CCCC(N(C)C)C2)cnn1C(C)(C)C (stereo unspecified)")
"5.7%"
>>> value("CC1c2ccc(F)cc2CCN1C(=O)c1[nH]c(=O)[nH]c(=O)c1N (stereo unspecified)")
"23.6%"
>>> value("O=C(NCC(O)c1ccc(F)c(F)c1)c1cccnc1O (stereo unspecified)")
"36.8%"
>>> value("COc1ccccc1N1CC(NC(=O)Cn2cc(C(C)C)nn2)CC1=O (stereo unspecified)")
"-14.2%"
>>> value("Cn1ncc2c(N[C@@H]3CS(=O)(=O)C[C@H]3O)nc(C(C)(C)C)nc21")
"54.4%"
>>> value("Cc1cc2c(N)nc(=O)n(CC(=O)Nc3cccc(Cl)c3)c2s1")
"76.9%"
>>> value("CCCc1nnc(NC(=O)NC(CCO)c2cccs2)s1 (stereo unspecified)")
"-26.8%"
>>> value("Cc1nc(C2CCCN2Cc2cc(=O)n(C)c(=O)n2C)no1 (stereo unspecified)")
"15.3%"
>>> value("CCC=C(C)C(=O)NCCc1csc(N2CCCC2)n1")
"41.4%"
>>> value("Cc1nc(NC2CCN(C(=O)C3CC3)CC2)c2cnn(C)c2n1")
"-25.2%"
>>> value("Cc1ocnc1C(=O)N1CCN(CCOc2ccccc2)CC1")
"37.6%"
